Listed next: entries and their corresponding % inhibition.
Biological target: T1, cynomolgus CX3CR1 (cynomolgus monkey (Macaca fascicularis), UniProt P49238 1-355 (human entry))
T1 construct: Overexpressed on CHO K1 cells; also called cyno CX3CR1; cyCX3CR1
T1 chain: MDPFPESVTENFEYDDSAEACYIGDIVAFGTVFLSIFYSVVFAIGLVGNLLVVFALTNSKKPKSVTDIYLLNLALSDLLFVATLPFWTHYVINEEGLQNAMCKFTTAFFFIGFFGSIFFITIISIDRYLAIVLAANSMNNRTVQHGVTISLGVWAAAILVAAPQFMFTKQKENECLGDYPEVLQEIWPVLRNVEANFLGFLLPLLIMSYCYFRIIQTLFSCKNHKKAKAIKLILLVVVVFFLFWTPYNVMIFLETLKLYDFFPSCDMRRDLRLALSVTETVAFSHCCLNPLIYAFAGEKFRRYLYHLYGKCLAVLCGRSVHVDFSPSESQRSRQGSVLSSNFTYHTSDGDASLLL
Test: competition flow cytometry vs soluble huCX3CL1-AF647 on CHO K1 cyCX3CR1 cells, 30 uM HSA
Write down the numeric answer in % and omit the unit.

As a guide, the following entries are already answered.
>>> measured_value("A041600026 (VHH, Trivalent ISVD construct; also called 66B02_SO (E1D)-20GS-ALB23002-20GS-66B02_SO-A) DVQLVESGGGSVQPGGSLRLSCAASGSIFSSTAMAWYRQAPGKRRDLVAAINTVGVTKYADSVKGRFTISRDNAKNTVYLQMNSLRPEDTALYYCTSDPRRGWDTRYWGQGTLVTVSSGGGGSGGGGSGGGGSGGGGSEVQLVESGGGVVQPGGSLRLSCAASGFTFRSFGMSWVRQAPGKGPEWVSSISGSGSDTLYADSVKGRFTISRDNSKNTLYLQMNSLRPEDTALYYCTIGGSLSRSSQGTLVTVSSGGGGSGGGGSGGGGSGGGGSEVQLVESGGGSVQPGGSLRLSCAASGSIFSSTAMAWYRQAPGKRRDLVAAINTVGVTKYADSVKGRFTISRDNAKNTVYLQMNSLRPEDTALYYCTSDPRRGWDTRYWGQGTLVTVSSA")
104
>>> measured_value("A041600011 (VHH, Trivalent ISVD construct (two anti-CX3CR1 ISVDs, one anti-albumin ISVD), C-terminal alanine included in the entry; also called 66B02_SO (E1D)-9GS-66B02_SO-9GS-ALB23002-A) DVQLVESGGGSVQPGGSLRLSCAASGSIFSSTAMAWYRQAPGKRRDLVAAINTVGVTKYADSVKGRFTISRDNAKNTVYLQMNSLRPEDTALYYCTSDPRRGWDTRYWGQGTLVTVSSGGGGSGGGSEVQLVESGGGSVQPGGSLRLSCAASGSIFSSTAMAWYRQAPGKRRDLVAAINTVGVTKYADSVKGRFTISRDNAKNTVYLQMNSLRPEDTALYYCTSDPRRGWDTRYWGQGTLVTVSSGGGGSGGGSEVQLVESGGGVVQPGGSLRLSCAASGFTFRSFGMSWVRQAPGKGPEWVSSISGSGSDTLYADSVKGRFTISRDNSKNTLYLQMNSLRPEDTALYYCTIGGSLSRSSQGTLVTVSSA")
111
>>> measured_value("A041600010 (VHH, Trivalent ISVD construct (two anti-CX3CR1 ISVDs, one anti-albumin ISVD); also called 66B02_SO (E1D)-9GS-ALB23002-9GS-66B02_SO-A) DVQLVESGGGSVQPGGSLRLSCAASGSIFSSTAMAWYRQAPGKRRDLVAAINTVGVTKYADSVKGRFTISRDNAKNTVYLQMNSLRPEDTALYYCTSDPRRGWDTRYWGQGTLVTVSSGGGGSGGGSEVQLVESGGGVVQPGGSLRLSCAASGFTFRSFGMSWVRQAPGKGPEWVSSISGSGSDTLYADSVKGRFTISRDNSKNTLYLQMNSLRPEDTALYYCTIGGSLSRSSQGTLVTVSSGGGGSGGGSEVQLVESGGGSVQPGGSLRLSCAASGSIFSSTAMAWYRQAPGKRRDLVAAINTVGVTKYADSVKGRFTISRDNAKNTVYLQMNSLRPEDTALYYCTSDPRRGWDTRYWGQGTLVTVSSA")
113
>>> measured_value("A041600034 (VHH, Trivalent ISVD construct; also called 54A12_SO (E1D)-9GS-ALB23002-9GS-66B02_SO-A) DVQLVESGGGSVQPGGSLRLSCAASGSIFSSTAMAWYRQAPGKQRDLVAVISTVGITKYADSVKGRFTISRDNAKNTVYLQMNSLRPEDTALYYCTSDARRGWDTRYWGQGTLVTVSSGGGGSGGGSEVQLVESGGGVVQPGGSLRLSCAASGFTFRSFGMSWVRQAPGKGPEWVSSISGSGSDTLYADSVKGRFTISRDNSKNTLYLQMNSLRPEDTALYYCTIGGSLSRSSQGTLVTVSSGGGGSGGGSEVQLVESGGGSVQPGGSLRLSCAASGSIFSSTAMAWYRQAPGKRRDLVAAINTVGVTKYADSVKGRFTISRDNAKNTVYLQMNSLRPEDTALYYCTSDPRRGWDTRYWGQGTLVTVSSA")
104
>>> measured_value("A041600085 (VHH, also called 307-9GS-ALB23002-9GS-307 (D1E)-A) DVQLVESGGGLVQPGGSLRLSCAASGSIFSSTAMAWYRQAPGKRRDLVAAISTVGVTKYADSVKGRFTISRDNSKNTVYLQMNSLRPEDTAVYYCTSDPRRGWDTRYWGQGTLVTVSSGGGGSGGGSEVQLVESGGGVVQPGGSLRLSCAASGFTFRSFGMSWVRQAPGKGPEWVSSISGSGSDTLYADSVKGRFTISRDNSKNTLYLQMNSLRPEDTALYYCTIGGSLSRSSQGTLVTVSSGGGGSGGGSEVQLVESGGGLVQPGGSLRLSCAASGSIFSSTAMAWYRQAPGKRRDLVAAISTVGVTKYADSVKGRFTISRDNSKNTVYLQMNSLRPEDTAVYYCTSDPRRGWDTRYWGQGTLVTVSSA")
102
>>> measured_value("A041600040 (VHH, Trivalent ISVD construct (two anti-CX3CR1 ISVDs, one anti-albumin ISVD), C-terminal alanine included in the entry; also called 66B02_SO (E1D)-9GS-54A12_SO-9GS-ALB23002-A) DVQLVESGGGSVQPGGSLRLSCAASGSIFSSTAMAWYRQAPGKRRDLVAAINTVGVTKYADSVKGRFTISRDNAKNTVYLQMNSLRPEDTALYYCTSDPRRGWDTRYWGQGTLVTVSSGGGGSGGGSEVQLVESGGGSVQPGGSLRLSCAASGSIFSSTAMAWYRQAPGKQRDLVAVISTVGITKYADSVKGRFTISRDNAKNTVYLQMNSLRPEDTALYYCTSDARRGWDTRYWGQGTLVTVSSGGGGSGGGSEVQLVESGGGVVQPGGSLRLSCAASGFTFRSFGMSWVRQAPGKGPEWVSSISGSGSDTLYADSVKGRFTISRDNSKNTLYLQMNSLRPEDTALYYCTIGGSLSRSSQGTLVTVSSA")
117

QUERY: Need % inhibition, item A041600035 (VHH, Trivalent ISVD construct (two anti-CX3CR1 ISVDs, one anti-albumin ISVD), C-terminal alanine included in the entry; also called 54A12_SO (E1D)-9GS-54A12_SO-9GS-ALB23002-A) DVQLVESGGGSVQPGGSLRLSCAASGSIFSSTAMAWYRQAPGKQRDLVAVISTVGITKYADSVKGRFTISRDNAKNTVYLQMNSLRPEDTALYYCTSDARRGWDTRYWGQGTLVTVSSGGGGSGGGSEVQLVESGGGSVQPGGSLRLSCAASGSIFSSTAMAWYRQAPGKQRDLVAVISTVGITKYADSVKGRFTISRDNAKNTVYLQMNSLRPEDTALYYCTSDARRGWDTRYWGQGTLVTVSSGGGGSGGGSEVQLVESGGGVVQPGGSLRLSCAASGFTFRSFGMSWVRQAPGKGPEWVSSISGSGSDTLYADSVKGRFTISRDNSKNTLYLQMNSLRPEDTALYYCTIGGSLSRSSQGTLVTVSSA
RESULT: 105
